B1: CAMK2A (parent)
chain: ILLVGYPPFWDEDQHRLYKQIKAG

- Variants of: B1
- Experiment: protein stability index of a GFP-peptide fusion (GPS, HEK-293T) (PSI 1-6); higher = more stable;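 note: lentivirally expressed fusions sorted by FACS into six bins by GFP to DsRed ratio, PSI derived from sequencing read proportions per bin multiplied by bin number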
- Run parameters: c terminus: a fixed tail appended
Would you mind labelling by protein stability index? At or over 2 is label 1, under is label 0.

Example results:
D13I
label 1
F9V
label 1
D11K
label 1
Q20A
label 0

*Q* Hello, I need to know if G24N has measured protein stability index not below 2. Thanks!
*A* label 1

*Q* Hello, I need to know if Q20T has measured protein stability index not below 2. Thanks!
*A* label 0

Values from the supplement of paper PMC10567573
